Taken from ChEMBL document CHEMBL5126561.

Experiment: Lipophilicity, logP of compound
Format: physicochemical
Conditions: octanol/water
outcomeMeasure: logP
// return a plain number; no unit text

So, Cc1cc(Cn2nnnc2Cc2ccccc2)n[nH]1 ? Its logP was 1.62

So, CCn1nc(Cn2nnnc2Cc2ccccc2)cc1C ? Its logP was 2.1

So, CCn1nc(Cn2nnc(-c3ccccn3)n2)cc1C ? Its logP was 2.08

So, CCn1nc(Cn2nnc(Cc3ccccc3)n2)cc1C ? Its logP was 2.88

So, Cc1cc(Cn2nnc(-c3ccccn3)n2)n[nH]1 ? Its logP was 1.69

So, Cc1cc(Cn2nnnc2-c2ccccn2)n[nH]1 ? Its logP was 0.86

So, Cc1cc(Cn2nnc(Cc3ccccc3)n2)n[nH]1 ? Its logP was 2.5

So, CCn1nc(Cn2nnnc2-c2ccccn2)cc1C ? Its logP was 1.34
